Kindly supply the reported inhibition values for the records listed here.
# study-system: Furin (Homo sapiens)
# experimental-protocol: human furin inhibitors, primary screen, biochemical, fluorescence intensity (AID 463115)
# test-parameters: purified furin, fluorogenic substrate cleavage, hits give high values; at 30 µM unless noted
About 130 (0.059%) of roughly 220,000 compounds were called active. The sample holds actives, similar compounds and a random draw of the others, so the mix is not that of the screen.

Query: Any idea what inhibition was measured for O=C(NC1CCN(Cc2ccccc2)CC1)c1c(F)cccc1F ?
Reply: -12.2% (inactive)

Query: Any idea what inhibition was measured for Cc1cc(Nc2ccc(N3CCOCC3)cc2)c2cccc(C)c2n1 ?
Reply: 3.96% (inactive)

Query: Any idea what inhibition was measured for CCCOn1c(-n2nc(C)cc2C)nc2ccccc2c1=O ?
Reply: -1.39% [at 20 µM] (inactive)

Query: Any idea what inhibition was measured for CC1=C(C)C(=O)OC(C(C)C2CCC3C4CC=C5CC(OC6OC(COC7OC(CO)C(O)C(O)C7O)C(O)C(O)C6O)CC(O)C5(C)C4CCC23C)C1 (stereo not given) ?
Reply: -28.1% (inactive)

Query: Any idea what inhibition was measured for O=C(Nc1nccs1)C1CCN(S(=O)(=O)c2ccc(Cl)c(C(F)(F)F)c2)CC1 ?
Reply: -14.1% [at 20 µM] (inactive)

Query: Any idea what inhibition was measured for CC(C)(C)NC(=O)NC(=O)COC(=O)Cc1ccc(Cl)cc1Cl ?
Reply: -11.5% (inactive)

Query: Any idea what inhibition was measured for C=CC(COCc1ccccc1)N(Cc1ccccc1)S(=O)(=O)c1ccccc1Br (stereo not given) ?
Reply: -14.6% (inactive)

Query: Any idea what inhibition was measured for CC1(C)CC(=O)C(N=Nc2ccc(S(=O)(=O)N3CCCCCC3)cc2)=C(O)C1 ?
Reply: -26.5% (inactive)

Query: Any idea what inhibition was measured for Cc1cc(NC(=O)CSc2nc3ccccc3n2CC(C)C)no1 ?
Reply: -16.9% (inactive)

Query: Any idea what inhibition was measured for COc1cc(C)c(S(=O)(=O)N2CCOCC2)c(C)c1C ?
Reply: -15.3% (inactive)

###

# study-system: Furin (Homo sapiens)
# experimental-protocol: human furin inhibitors, primary screen, biochemical, fluorescence intensity (AID 463115)
# test-parameters: purified furin, fluorogenic substrate cleavage, hits give high values; at 30 µM unless noted
Out of some 220,000 compounds screened, about 130 (0.059%) were called active. For the sample, actives were picked, then their nearest neighbours and some compounds at random.
Kindly supply the reported inhibition values for the records listed here.

Query: Any idea what inhibition was measured for Cc1cc(OC(=O)c2ccccc2Cl)ccc1N1C(=O)CCC1=O ?
Reply: -16% (inactive)

Query: Any idea what inhibition was measured for Clc1ccc(-c2nnc(-c3ccccc3)nc2N2CCSCC2)cc1 ?
Reply: -4.61% [at 20 µM] (inactive)

Query: Any idea what inhibition was measured for O=C(O)/C(=C/c1cccnc1)NC(=O)c1ccccc1 ?
Reply: -17.1% (inactive)

Query: Any idea what inhibition was measured for CCOc1ccc(Oc2nc(C)cc(OC)n2)nn1 ?
Reply: -13.8% (inactive)

Query: Any idea what inhibition was measured for COc1ccc(CCNc2cc(C)nc3c(-c4ccc(Cl)cc4)c(C)nn23)cc1OC ?
Reply: 9.61% (inactive)

Query: Any idea what inhibition was measured for O=C(c1ccc(OC2CCN(C(=O)c3cccnc3)CC2)cc1)N1CCCCCC1 ?
Reply: -20.3% (inactive)

Query: Any idea what inhibition was measured for CCCNS(=O)(=O)c1ccc(CCC(=O)N2CCCC2)cc1 ?
Reply: -15.5% (inactive)

Query: Any idea what inhibition was measured for CCC(=O)Nc1sc(C(=O)Nc2ccccc2)c(C)c1C(=O)OC ?
Reply: -21.3% (inactive)

Query: Any idea what inhibition was measured for COc1ccc(C(=O)NC(=S)Nc2ccc(Cl)cn2)cc1OC ?
Reply: -15.4% (inactive)

Query: Any idea what inhibition was measured for CCCCc1ccc(NC(=S)N2CCCC(CO)C2)cc1 (stereo not drawn) ?
Reply: -6.03% (inactive)

Query: Any idea what inhibition was measured for O=C1N=C(N2CCc3ccccc3C2)S/C1=C\c1ccc(O)cc1 ?
Reply: -5.76% (inactive)

Query: Any idea what inhibition was measured for CCCC1OC23CCCCC2C(C#N)(C#N)C1(C#N)C(=N)O3 (stereo not drawn) ?
Reply: -12.5% (inactive)

Query: Any idea what inhibition was measured for COc1ccc2c(CC(=O)OCC(=O)Nc3ccccc3[N+](=O)[O-])coc2c1 ?
Reply: -10.8% (inactive)
